Hey, just so you know, these numbers are from patent US20080076927A1.

assay: Metabolism in Fresh Human Blood; format: in vitro ADME; details: fresh heparinized human blood, Subject 1, 100 μM, 37° C., read-out: Half-life
observationType: half-life at 100 µM (min)
Numbers only here, please. The scale is min.

Param item = `COc1cc(N)c(Cl)cc1C(=O)N[C@@H]1CCN(CCCCCC(=O)O[C@H]2CN3CCC2CC3)C[C@@H]1OC` ; retrieve measured half-life at 100 µM. 8.47

----------
target: 5-HT4 Receptor (Cavia porcellus); experiment: 5-HT4 Receptor Binding, Guinea Pig Striatum, [3H]GR113808; design: Guinea Pig Striatum; from tissue; host or cells: guinea pig striatum; settings: Guinea Pig Striatum; [3H]GR113808 (0.70 nM); read-out: IC50
Sequence (O70528 whole entry): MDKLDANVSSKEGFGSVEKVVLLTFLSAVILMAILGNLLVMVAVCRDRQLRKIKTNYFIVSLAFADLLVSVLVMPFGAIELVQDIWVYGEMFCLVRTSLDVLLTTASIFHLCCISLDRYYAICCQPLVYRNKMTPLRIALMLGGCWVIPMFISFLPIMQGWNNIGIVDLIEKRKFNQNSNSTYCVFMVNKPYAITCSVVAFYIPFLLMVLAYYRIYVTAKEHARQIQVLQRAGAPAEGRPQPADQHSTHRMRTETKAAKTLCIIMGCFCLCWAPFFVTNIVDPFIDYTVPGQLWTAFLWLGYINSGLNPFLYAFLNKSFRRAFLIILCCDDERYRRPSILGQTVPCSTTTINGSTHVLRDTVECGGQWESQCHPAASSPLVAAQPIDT
observationType: IC50

Param item = `COc1cc(N)c(Cl)cc1C(=O)N[C@@H]1CCN(CCCCCC(=O)O)C[C@@H]1OC` ; retrieve measured IC50. > 3 µM

----------
target: human 5-HT4 receptor (Homo sapiens); construct: expressed in transfected cells; assay: adenylyl cyclase stimulation in cells engineered to stably express human 5-HT4 receptor; format: cell-based; details: Potency EC50, concentration causing 50% maximal increase in adenylyl cyclase activity, estimated; unit nM printed in b338 only
observationType: EC50 (nM)
Numbers only here, please. The scale is nM.

Param item = COc1cc(N)c(Cl)cc1C(=O)N[C@@H]1CCN(CCCCCC(=O)O[C@H]2CN3CCC2CC3)C[C@@H]1OC [ATI-7505] ; retrieve measured EC50. 4

----------
experiment: Metabolism in Fresh Human Blood; type: in vitro ADME; settings: fresh heparinized human blood, Subject 3, 100 μM, 37° C., read-out: Half-life
observationType: half-life at 100 µM (min)
Numbers only here, please. The scale is min.

Param item = `COc1cc(N)c(Cl)cc1C(=O)N[C@@H]1CCN(CCCCCC(=O)O[C@H]2CN3CCC2CC3)C[C@@H]1OC` ; retrieve measured half-life at 100 µM. 8.58

----------
target: human 5-HT4 receptor (Homo sapiens, UniProt Q13639); construct: expressed in transfected cells; test: adenylyl cyclase stimulation in cells engineered to stably express human 5-HT4 receptor; assay type: cell-based; settings: Potency pEC50, negative logarithm of the EC50
Sequence (Q13639 whole entry): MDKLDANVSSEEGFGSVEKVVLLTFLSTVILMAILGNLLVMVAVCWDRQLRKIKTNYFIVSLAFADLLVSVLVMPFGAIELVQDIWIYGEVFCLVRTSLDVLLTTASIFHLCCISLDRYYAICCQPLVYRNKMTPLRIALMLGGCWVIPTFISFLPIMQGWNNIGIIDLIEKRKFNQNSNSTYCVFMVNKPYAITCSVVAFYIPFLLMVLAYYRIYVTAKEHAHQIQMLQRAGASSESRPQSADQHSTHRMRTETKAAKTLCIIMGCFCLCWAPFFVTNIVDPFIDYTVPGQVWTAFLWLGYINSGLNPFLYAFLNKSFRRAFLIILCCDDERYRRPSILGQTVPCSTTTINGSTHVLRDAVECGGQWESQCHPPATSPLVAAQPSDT
observationType: EC50

Param item = COc1cc(N)c(Cl)cc1C(=O)N[C@@H]1CCN(CCCCCC(=O)O[C@H]2CN3CCC2CC3)C[C@@H]1OC [ATI-7505] ; retrieve measured EC50. 3.55 nM

----------
Assay: Metabolism in Fresh Human Blood
Type: in vitro ADME
Conditions: blood, Half-life (min)
Protocol: Fresh blood was collected into heparinized tubes from 3 human donors and blood was stored on ice until incubation. […] Incubations were quenched after 0, 5, 15, 30 and 60 minutes, by the addition of acetonitrile ([…]), centrifuged at 12,000 rpm for 2 minutes and the supernatant analyzed on an Agilent 1100 HPLC system. […] The results were expressed as amount of initial compound remaining and data subjected to kinetic analysis using WinNonLin. […]
observationType: half-life at 100 µM

Param item = `COc1cc(N)c(Cl)cc1C(=O)N[C@@H]1CCN(CCCCCC(=O)O[C@@H]2CN3CCC2CC3)C[C@@H]1OC` ; retrieve measured half-life at 100 µM. > 60 min

Param item = `COc1cc(N)c(Cl)cc1C(=O)N[C@H]1CCN(CCCCCC(=O)O[C@H]2CN3CCC2CC3)C[C@H]1OC` ; retrieve measured half-life at 100 µM. 12 min

Param item = `COc1cc(N)c(Cl)cc1C(=O)N[C@H]1CCN(CCCCCC(=O)O[C@@H]2CN3CCC2CC3)C[C@H]1OC` ; retrieve measured half-life at 100 µM. > 60 min
